Reference source for all entries: paper PMC5540273

Tested on: LATS1
conditionContext: concentration: 1 μM, replicates: in singlicate; n = 1;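 note: KINOMEscan kinase panel screen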
Known %Inh of a selection of compounds
propertyMeasured: %Inh (%)

INSERT INTO assay_data (compound, propertymeasured, reading) VALUES
  ('NCCC(NC(=O)c1cc(Br)c(-c2ccnc3[nH]ccc23)s1)c1ccccc1.O=C(O)C(F)(F)F.O=C(O)C(F)(F)F (stereo not drawn) [GSK1307810]', '%Inh', 83),
  ('O=C(Nc1n[nH]c2cc(-c3cccs3)ccc12)C1CC1 [SB-731284]', '%Inh', 0),
  ('O=C(Nc1n[nH]c2nc(-c3ccccc3)ccc12)C1CC1 [SB-708999]', '%Inh', 6),
  ('Cc1ccc(O)cc1Nc1ccnc2ccc(C(C)(C)C)cc12 [GW856805]', '%Inh', 0),
  ('COc1cccc2c(-c3ccncc3)c(-c3ccc(F)cc3)nn12 [GW468513]', '%Inh', 0),
  ('CSc1ccc(NC2=C(c3ccc(Cl)cc3)C(=O)NC2=O)cc1 [SB-317658]', '%Inh', 8),
  ('CCOc1nccc(-c2c(-c3ccc(F)cc3)ncn2C2CCNCC2)n1 [SB-249175]', '%Inh', 0),
  ('CC(C)NCC(Cc1ccccc1)NC(=O)c1cc(Br)c(-c2ccnc3[nH]ccc23)s1.Cl.Cl (stereo not drawn) [GSK1383281]', '%Inh', 100),
  ('Nc1cccc(-c2ccc3c(N)n[nH]c3c2)c1 [GSK2193613]', '%Inh', 0);

* * *

Tested on: ZAP70
conditionContext: concentration: 1 μM, replicates: in singlicate; n = 1
propertyMeasured: %Inh (%)

INSERT INTO assay_data (molecule, reading) VALUES
  ('CNc1nccc(-c2ccc3c(N)n[nH]c3c2)n1 [GSK2206003]', 0),
  ('COc1ccc(C2=C(Nc3cccc(O)c3)C(=O)NC2=O)cc1 [SB-390766]', 0),
  ('COc1cc(Nc2nccc(N3CCC(NC(=O)Nc4ccc5c(c4)OCO5)C3)n2)cc(OC)c1OC (centres unmarked) [GSK1379766]', 0),
  ('CCn1cnc2c(NCc3ccccc3)ncnc21 [SKF-96418]', 30),
  ('CN1CCN(Cc2ccc(NC(=O)Nc3ccc(N(C)c4ccnc(Nc5ccc(CS(C)(=O)=O)cc5)n4)cc3)cc2)CC1.Cl [GW827654]', 52),
  ('COC(=O)Nc1nc2cc(Oc3ccc(NC(=O)Nc4cccc(SC)c4)cc3)ccc2[nH]1.Cl [GW697999]', 0),
  ('Cl.O=C(Nc1ccc(Oc2ccc3[nH]c(NC(=O)c4ccco4)nc3c2)cc1)Nc1cc(C(F)(F)F)ccc1F [GW683134]', 0),
  ('O=C(Nc1n[nH]c2cc(-c3cccs3)ccc12)C1CC1 [SB-731284]', 12),
  ('Fc1cc(Cl)ccc1Nc1ccnc2cc(-c3ccc(CN4CCOCC4)o3)ccc12 [GW560109]', 3),
  ('CCn1c(-c2nonc2N)nc2c(-c3ccccc3)ncc(OCCCN)c21.O=C(O)C(F)(F)F.O=C(O)C(F)(F)F [GSK260205]', 0),
  ('COc1cc(Nc2nccc(N3CCC(NS(=O)(=O)c4ccc(NC(C)=O)cc4)CC3)n2)cc(OC)c1OC [GSK1379825]', 5),
  ('CN(c1ccc(NC(=O)Nc2cccc(Cl)c2)cc1)c1ccnc(N)n1.Cl [GW830707]', 0),
  ('Cc1ccc(O)cc1Nc1ccnc2ccc(C(C)(C)C)cc12 [GW856805]', 15),
  ('Cc1cc(-c2ccnc(Nc3cccc(C#N)c3)n2)cc(C)c1O [GSK1440913]', 2),
  ('CS(=O)(=O)c1cccc(CNc2nc(Nc3ccc4c(c3)CCC(=O)N4)ncc2C(F)(F)F)c1', 43),
  ('COc1cccc2c(-c3ccncc3)c(-c3ccc(F)cc3)nn12 [GW468513]', 9),
  ('O=C(O)C(F)(F)F.O=c1[nH]ccc2nc(N[C@@H]3CCNC3)nc(Nc3ccc4c(c3)S(=O)(=O)CC4)c12 [GSK2181306]', 1);

* * *

Tested on: MEK1
Construct: gene MAP2K1
conditionContext: concentration: 1 μM, replicates: in singlicate; n = 1
Known %Inh of a selection of compounds
propertyMeasured: %Inh (%)

INSERT INTO results (compound, targetundertest, propertymeasured, reading) VALUES
  ('COc1cccc(CC(=O)N2CCc3cc(-c4cn(C)c5ncnc(N)c45)ccc32)c1 [GSK2608899]', 'MEK1', '%Inh', 39),
  ('COc1cc(Nc2ccnc3cc(-c4ccncc4)ccc23)cc(OC)c1OC.Cl [GW494610]', 'MEK1', '%Inh', 14),
  ('Cc1ccc(C)c(NC(=O)Nc2ccc(C)c(-c3ccc(C(=O)Nc4ccncc4)cc3)c2)c1 [GSK1398473]', 'MEK1', '%Inh', 0),
  ('COc1ccc(NC(=O)c2ccoc2)cc1-c1ccc(C(=O)NCC2CC2)cc1 [GW810437]', 'MEK1', '%Inh', 13),
  ('O=C1NC(=O)C(c2ccccc2Cl)=C1Nc1cccc(Cl)c1 [SB-342409]', 'MEK1', '%Inh', 2);

* * *

Test system: PLK1
conditionContext: concentration: 1 μM, replicates: in singlicate; n = 1
propertyMeasured: %Inh (%)

INSERT INTO measurements (compound, targetundertest, unitabbreviation, reading) VALUES
  ('Cc1cc(-c2c(-c3ccc(F)cc3)ncn2CCCN2CCOCC2)nc(N)n1 [SB-222517]', 'PLK1', '%', 12),
  ('Nc1ncnc2scc(-c3ccc(NC(=O)Cc4cc(F)ccc4F)cc3)c12.O=C(O)C(F)(F)F [SB-731254-M]', 'PLK1', '%', 9),
  ('Cc1cc(-c2ccnc(Nc3cccc(C#N)c3)n2)cc(C)c1O [GSK1440913]', 'PLK1', '%', 0),
  ('CS(=O)(=O)c1cccc(CNc2nc(Nc3ccc4c(c3)CCC(=O)N4)ncc2C(F)(F)F)c1', 'PLK1', '%', 0),
  ('O=C(Nc1n[nH]c2nc(-c3ccccc3O)ccc12)C1CC1 [SB-711880]', 'PLK1', '%', 0),
  ('Nc1ncc(-c2cn[nH]c2)c2scc(-c3ccc4c(c3)CCN4C(=O)Cc3ccccc3)c12 [GSK2593067]', 'PLK1', '%', 0),
  ('NCCC(NC(=O)c1cc(Br)c(-c2ccnc3[nH]ccc23)s1)c1ccccc1.O=C(O)C(F)(F)F.O=C(O)C(F)(F)F (centres unmarked) [GSK1307810]', 'PLK1', '%', 0),
  ('CCOc1nccc(-c2c(-c3ccc(F)cc3)ncn2C2CCNCC2)n1 [SB-249175]', 'PLK1', '%', 9);

* * *

Test system: PIM2
conditionContext: concentration: 1 μM, replicates: in singlicate; n = 1
propertyMeasured: %Inh (%)

INSERT INTO results (compound, propertymeasured, reading) VALUES
  ('O=C1NC(=O)C(c2ccccc2Cl)=C1Nc1cccc(Cl)c1 [SB-342409]', '%Inh', 0),
  ('CC(C)c1nc(-c2ccc(F)c(NS(=O)(=O)c3c(F)cccc3F)c2)c(-c2ccnc(Nc3ccc(N4CCOCC4)nc3)n2)s1 [GSK1804250]', '%Inh', 0),
  ('Cn1cc(-c2cnc(N)c3c(-c4ccc5c(c4)CCN5C(=O)Cc4ccccc4)csc23)cn1 [GSK2593074]', '%Inh', 15),
  ('Cc1ccc(NC(=O)c2ccnc(N3CCCCC3)c2)cc1-c1ccc(C(=O)NCC2CC2)cc1 [GW775610]', '%Inh', 0),
  ('CNc1nccc(-c2ccc3c(N)n[nH]c3c2)n1 [GSK2206003]', '%Inh', 0);

* * *

Test system: RIPK2
conditionContext: concentration: 1 μM, replicates: in singlicate; n = 1
propertyMeasured: %Inh (%)

INSERT INTO assay_data (molecule, propertymeasured, reading) VALUES
  ('COc1cccc(-c2nc(-c3ccccc3)[nH]c2-c2ccncc2)c1', '%Inh', 75),
  ('Cc1ccccc1CC(=O)N1CCc2cc(-c3cn(C)c4ncnc(N)c34)ccc21', '%Inh', 63),
  ('CCOc1nccc(-c2c(-c3ccc(F)cc3)ncn2C2CCNCC2)n1', '%Inh', 31),
  ('NCCC(NC(=O)c1cc(Br)c(-c2ccnc3[nH]ccc23)s1)c1ccccc1.O=C(O)C(F)(F)F.O=C(O)C(F)(F)F (stereo not shown)', '%Inh', 4);

* * *

Tested on: BUB1
conditionContext: concentration: 1 μM, replicates: in singlicate; n = 1
propertyMeasured: %Inh (%)

INSERT INTO measurements (compound, unitabbreviation, reading) VALUES
  ('Fc1cc(Cl)ccc1Nc1ccnc2cc(-c3ccc(CN4CCSCC4)o3)ccc12', '%', 38),
  ('NCCC(NC(=O)c1cc(Br)c(-c2ccnc3[nH]ccc23)s1)c1ccccc1.O=C(O)C(F)(F)F.O=C(O)C(F)(F)F (stereo not shown)', '%', 68),
  ('COc1cccc(-c2nc(-c3ccccc3)[nH]c2-c2ccncc2)c1', '%', 95.6),
  ('COc1cccc(C2=C(Nc3cccc(O)c3)C(=O)NC2=O)c1', '%', 42),
  ('Cc1nn2c(=O)cc(N3CCO[C@H](C)C3)nc2n1Cc1cccc(Cl)c1Cl', '%', 28),
  ('CN(c1ccc(NC(=O)N2CCN(CCCN3CCOCC3)CC2)cc1)c1ccnc(Nc2ccc(CS(C)(=O)=O)cc2)n1.Cl', '%', 0),
  ('CN(c1ccc(F)c(NC(=O)c2cccc(OC(C)(C)C#N)c2Cl)c1)c1ccc2nc(NC(=O)C3CC3)sc2n1', '%', 34),
  ('O=C(Nc1n[nH]c2cc(-c3cccs3)ccc12)C1CC1', '%', 0),
  ('CN(C)CCOc1ccc(-c2cc(-c3ccc(Cl)c(O)c3)c(-c3ccncc3)[nH]2)cc1.Cl.Cl', '%', 83),
  ('Cl.O=C(Nc1ccc(Oc2ccc3[nH]c(NC(=O)c4ccco4)nc3c2)cc1)Nc1cc(C(F)(F)F)ccc1F', '%', 30),
  ('CC(C)NCC(Cc1ccccc1)NC(=O)c1cc(Br)c(-c2ccnc3[nH]ccc23)s1.Cl.Cl (stereo not shown)', '%', 43),
  ('N#CC1(c2cccc(C(=O)Nc3cccc(Oc4ccc5nc(NC(=O)C6CC6)sc5n4)c3)c2)CC1', '%', 0),
  ('COc1ccc(C2=C(Nc3cccc(O)c3)C(=O)NC2=O)cc1', '%', 50),
  ('O=C(O)C(F)(F)F.O=c1[nH]ccc2nc(N[C@@H]3CCNC3)nc(Nc3ccc4c(c3)S(=O)(=O)CC4)c12', '%', 90.5),
  ('Cc1cc(-c2c(-c3ccc(F)cc3)ncn2CCCN2CCOCC2)nc(N)n1', '%', 0),
  ('Cc1cc(-c2ccnc(Nc3cccc(C#N)c3)n2)cc(C)c1O', '%', 52);
